FYI, the data here is from patent US6337340B1.

experiment: Clearance (Table V comments)
Type: in vitro ADME
property label: Clearance (µL/min)
# unit: µL/min | format: bare number

Just so you know, measured Clearance for O=C(SCCCc1ccccc1)[C@@H]1CCCN1S(=O)(=O)Cc1ccccc1 came out at 31.1

For CCC(C)(C)C(=O)C(=O)N1CCC[C@H]1C(=O)CCCCc1cccnc1 the compound record lists Clearance as 1.5

// field: Clearance; key: CCC(C)(C)C(=O)C(=O)N1CCCCC1C(=O)OC(CCc1ccccc1)CCc1ccccc1 (centres unmarked) ; value = 41.8

What the record says about CN(C)C(=O)N1CCC[C@H]1C(=O)SCCCc1ccccc1 : Clearance is 21.9

// Clearance lookup, compound = O=C(SCCCc1ccccc1)[C@@H]1CCCN1C(=O)NC12CC3CC(CC(C3)C1)C2 , result: 7

Clearance recorded for this compound, CCC(C)(C)C(=O)C(=O)N1CCC[C@H]1C(=O)SCCC(c1ccccc1)c1ccccc1 , is 12.5

// field: Clearance; key: CCC(C)(C)C(=O)C(=O)N1CCC[C@H]1C(=O)O ; value = 5.2

// sample CCC(C)(C)C(=O)C(=O)N1CCCC[C@H]1C(=O)SCCC(c1ccccc1)c1ccccc1 , its Clearance was 4.5
